biological target: UniProt:P9WNS1; assay type: biochemical
Sequence (P9WNS1 whole entry): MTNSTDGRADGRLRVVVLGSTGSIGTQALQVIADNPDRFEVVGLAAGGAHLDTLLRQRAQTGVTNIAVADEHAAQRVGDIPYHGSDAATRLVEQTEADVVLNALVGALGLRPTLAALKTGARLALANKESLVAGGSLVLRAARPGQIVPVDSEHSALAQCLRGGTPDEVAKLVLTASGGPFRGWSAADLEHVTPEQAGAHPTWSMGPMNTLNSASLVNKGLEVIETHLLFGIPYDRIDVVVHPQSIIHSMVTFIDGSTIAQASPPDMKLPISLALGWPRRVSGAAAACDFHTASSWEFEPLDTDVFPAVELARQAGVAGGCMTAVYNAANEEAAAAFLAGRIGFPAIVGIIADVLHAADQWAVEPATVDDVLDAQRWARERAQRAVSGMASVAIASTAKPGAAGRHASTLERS
Marks after values point to notes of the source that are not given here.
experimental_endpoint: percent remaining enzyme activity at 100 µM (Mtb Dxr)

molecule="CC(=O)N(CCCP(=O)([O-])O)OCc1ccc(-c2ccc(C(F)(F)F)cc2)cc1.[Na+] [Compound 16r]" observed_measurement="(70) percent"
molecule=O=C(c1ccccc1)N(O)CCCP(=O)([O-])O.[Na+] observed_measurement="(70) percent"

* * *

target: Yp Dxr (Yersinia pestis); format: biochemical; details: read-out: Ki with respect to NADPH
Sequence (Q8ZH62 whole entry, looked up): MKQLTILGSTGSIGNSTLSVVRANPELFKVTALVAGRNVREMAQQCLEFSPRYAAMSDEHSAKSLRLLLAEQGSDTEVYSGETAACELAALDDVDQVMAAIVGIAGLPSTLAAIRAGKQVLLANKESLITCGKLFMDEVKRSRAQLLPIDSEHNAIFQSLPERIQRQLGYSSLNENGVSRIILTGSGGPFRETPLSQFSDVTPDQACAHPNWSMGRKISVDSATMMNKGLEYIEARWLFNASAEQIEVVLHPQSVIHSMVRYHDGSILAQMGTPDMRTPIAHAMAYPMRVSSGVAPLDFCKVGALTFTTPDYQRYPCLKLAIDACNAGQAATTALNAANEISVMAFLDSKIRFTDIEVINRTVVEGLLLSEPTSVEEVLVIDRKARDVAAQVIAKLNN
pKi: −log10 of the molar value.
experimental_endpoint: pKi

test_smiles=O=C(c1ccccc1)N(O)CCCP(=O)([O-])O.[Na+] experimental_endpoint=pKi observed_measurement=5.74

* * *

biological target: UniProt Q8ZH62; assay type: biochemical
experimental_endpoint: inhibition of Yp Dxr (in words)

compound="CC(=O)N(CCCP(=O)([O-])O)OC(C)c1ccccc1.[Na+] (centres unmarked) [Compound 16e]" experimental_endpoint="inhibition of Yp Dxr (in words)" observed_measurement="most active"
compound=O=C(c1ccccc1)N(O)CCCP(=O)([O-])O.[Na+] experimental_endpoint="inhibition of Yp Dxr (in words)" observed_measurement="most active"
compound=O=C(CCCc1ccccc1)N(O)CCCP(=O)([O-])O.[Na+] experimental_endpoint="inhibition of Yp Dxr (in words)" observed_measurement="most active"
compound="CC(=O)N(CCCP(=O)([O-])O)OCCc1ccc(O)cc1.[Na+] [Compound 16g]" experimental_endpoint="inhibition of Yp Dxr (in words)" observed_measurement="most active"
compound="CC(=O)N(CCCP(=O)([O-])O)OCc1cccc2ccccc12.[Na+] [Compound 16i]" experimental_endpoint="inhibition of Yp Dxr (in words)" observed_measurement="most active"
compound=Cc1ccc(C(=O)N(O)CCCP(=O)([O-])O)cc1.[Na+] experimental_endpoint="inhibition of Yp Dxr (in words)" observed_measurement="most active"
compound="CC(=O)N(CCCP(=O)([O-])O)OCc1ccc(-c2ccc(C(F)(F)F)cc2)cc1.[Na+] [Compound 16r]" experimental_endpoint="inhibition of Yp Dxr (in words)" observed_measurement="most active"

The reported measurements were obtained from paper PMC5266543.
